All values here come from the supplement of paper PMC13380429.

Listed here: items and their measured SARS-CoV-2 infection rate.
system: Vero E6 infected with SARS-CoV-2; experiment: SARS-CoV-2 infection rate relative to infected DMSO; higher = more infection, active = 60 or less; details: 24 h
The reply should contain only the number, in %.

Some compounds with known SARS-CoV-2 infection rate results, for comparison:
Compound	Units Text	SARS-CoV-2 infection rate
Cc1ccc(NC(=O)c2ccc(CN3CCN(C)CC3)cc2)cc1Nc1nc(-c2cccnc2)cs1 [masitinib] (10 µM)	%	43
CO[C@H]1/C=C/O[C@@]2(C)Oc3c(C)c(O)c4c(O)c(cc(O)c4c3C2=O)NC(=O)/C(C)=C\C=C\[C@H](C)[C@H](O)[C@@H](C)[C@@H](O)[C@@H](C)[C@H](OC(C)=O)[C@@H]1C [rifamycin-sv] (10 µM)	%	94.2
O=C(O)CCCc1c[nH]c2ccccc12 [3-indolebutyric-acid] (10 µM)	%	114

Query :: Tell me the measured SARS-CoV-2 infection rate of CCC(CC)O[C@@H]1C=C(C(=O)O)C[C@H](N)[C@H]1NC(C)=O [oseltamivir-carboxylate] (10 µM) , please.
Result :: 102

Query :: Please do the same for O=C(O[C@H]1C[N+]2(CCCOc3ccccc3)CCC1CC2)C(O)(c1cccs1)c1cccs1 [aclidinium] (10 µM) as well.
Result :: 100

Query :: Please do the same for Cc1nnsc1C(=O)Nc1ccc(-n2nc(C(F)(F)F)cc2C(F)(F)F)cc1 (10 µM) as well.
Result :: 106

Query :: Please do the same for CCCCCN(C)CCC(O)(P(=O)(O)O)P(=O)(O)O [ibandronate] (10 µM) as well.
Result :: 111
